molecules and their reported log10(EC50)
Target: CFTR ΔF508 (Homo sapiens, UniProt P13569, DEL508-508)
Construct: bronchial epithelial cells isolated from CF patients homozygous for the CFTR ΔF508 mutation; McGill University; Asterand; University of North Carolina hAEC-CF; host or cells: primary human bronchial epithelial cells from CF patients homozygous for ΔF508, differentiated at air-liquid interface
Sequence (P13569 with tags, fused parts or gaps DEL508-508): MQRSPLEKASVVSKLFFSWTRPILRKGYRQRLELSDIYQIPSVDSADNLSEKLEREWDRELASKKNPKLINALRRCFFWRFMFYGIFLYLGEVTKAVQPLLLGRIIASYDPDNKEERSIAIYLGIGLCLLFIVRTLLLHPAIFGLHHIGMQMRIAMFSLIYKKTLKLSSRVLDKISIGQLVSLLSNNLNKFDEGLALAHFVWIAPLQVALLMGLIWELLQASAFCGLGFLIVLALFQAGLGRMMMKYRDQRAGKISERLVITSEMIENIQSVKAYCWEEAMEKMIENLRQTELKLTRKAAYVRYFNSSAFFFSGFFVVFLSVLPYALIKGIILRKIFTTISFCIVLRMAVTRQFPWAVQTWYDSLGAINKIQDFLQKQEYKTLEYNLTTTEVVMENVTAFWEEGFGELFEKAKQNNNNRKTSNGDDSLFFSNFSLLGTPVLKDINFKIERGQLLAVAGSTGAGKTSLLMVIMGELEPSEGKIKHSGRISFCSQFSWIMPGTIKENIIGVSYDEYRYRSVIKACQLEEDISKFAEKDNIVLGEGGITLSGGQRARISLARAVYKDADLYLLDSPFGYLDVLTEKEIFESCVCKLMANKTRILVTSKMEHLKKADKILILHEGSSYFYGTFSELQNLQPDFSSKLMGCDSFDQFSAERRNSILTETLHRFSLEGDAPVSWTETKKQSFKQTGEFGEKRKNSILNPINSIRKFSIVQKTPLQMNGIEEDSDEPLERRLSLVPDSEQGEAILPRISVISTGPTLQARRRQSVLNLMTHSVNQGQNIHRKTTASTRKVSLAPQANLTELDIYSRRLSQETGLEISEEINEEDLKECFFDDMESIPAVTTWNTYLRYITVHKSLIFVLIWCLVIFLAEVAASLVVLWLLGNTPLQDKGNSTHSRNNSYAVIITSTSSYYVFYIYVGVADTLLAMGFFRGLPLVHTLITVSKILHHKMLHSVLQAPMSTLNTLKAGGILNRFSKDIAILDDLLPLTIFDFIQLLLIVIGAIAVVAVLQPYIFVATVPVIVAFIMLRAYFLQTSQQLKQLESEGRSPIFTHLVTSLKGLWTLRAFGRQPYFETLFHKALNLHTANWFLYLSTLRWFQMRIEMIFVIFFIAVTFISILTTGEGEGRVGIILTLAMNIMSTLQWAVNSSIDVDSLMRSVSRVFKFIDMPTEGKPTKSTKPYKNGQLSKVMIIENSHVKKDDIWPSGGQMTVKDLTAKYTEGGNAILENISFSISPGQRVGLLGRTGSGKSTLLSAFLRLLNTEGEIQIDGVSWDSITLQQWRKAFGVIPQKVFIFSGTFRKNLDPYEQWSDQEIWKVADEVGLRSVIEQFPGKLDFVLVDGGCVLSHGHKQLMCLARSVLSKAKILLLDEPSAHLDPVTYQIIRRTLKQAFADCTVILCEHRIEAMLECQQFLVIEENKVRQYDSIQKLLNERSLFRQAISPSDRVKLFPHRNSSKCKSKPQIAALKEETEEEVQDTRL
Test: Chronic TECC assay, primary bronchial epithelial cells of CF patients homozygous for CFTR ΔF508 (corrector, co-corrector and potentiator)
Format: cell-based
Conditions: chronic TECC; AUC = full area under the curve upon forskolin stimulation; read-out: EC50 (nM) (AUC**)
Procedure: Primary Bronchial Epithelial Cells Protocol The TECC (Tranepithelial Clamp Circuit, EP-design) assay measures the functionality of the cystic fibrosis Transmembrane Conductance regulator (CFTR) by measuring the short circuit current (Isc) generated over the basolateral and apical membrane of lung epithelial cells. In TECC the transepithelial potential PD and transepithelial resistance (Rt) are measured in an open circuit and transformed to Ieq using Ohm's law. […]
measured property: log10(EC50) (log10 of the value in nM)

> print(dat)
                                    molecule                           target.of.assay  reported
 1  CN(C)S(=O)(=O)NC(=O)c1cc(N2CCC(CCN3CCOCC3)CC2)c2c(C3CCC3)nn(-c3ccc(F)cc3)c2n1  CFTR ΔF508 (Homo sapiens, UniProt P13569, DEL508-508)      2.08
 2  CCCOC1CCN(c2cc(C(=O)NS(C)(=O)=O)nc3c2c(C2CCC2)nn3-c2ccccc2)CC1  CFTR ΔF508 (Homo sapiens, UniProt P13569, DEL508-508)      1.20
 3  COCC1(OC)CCN(c2cc(C(=O)NS(C)(=O)=O)nc3c2c(C2CCC2)nn3-c2ccccc2)CC1  CFTR ΔF508 (Homo sapiens, UniProt P13569, DEL508-508)      1.91
 4  COCC1CN(C2CCN(c3cc(C(=O)NS(=O)(=O)N(C)C)nc4c3c(C3CCC3)nn4-c3ccc(F)cc3)CC2)CCO1 (centres unmarked)  CFTR ΔF508 (Homo sapiens, UniProt P13569, DEL508-508)      1.63
 5  CC(C)c1nn(-c2ccc(F)cc2)c2nc(C(=O)NS(C)(=O)=O)cc(N3CCC(C#N)CC3)c12  CFTR ΔF508 (Homo sapiens, UniProt P13569, DEL508-508)      2.15
 6  CS(=O)(=O)NC(=O)c1cc(N2CCC(N3CCOCC3)CC2)c2c(C3CCC3)nn(C3CCCCC3)c2n1  CFTR ΔF508 (Homo sapiens, UniProt P13569, DEL508-508)      1.28
 7  CC(C)Oc1nn(C2CCCCC2)c2nc(C(=O)NS(C)(=O)=O)cc(-c3ccc(CN4CCN(C(C)C)CC4)cc3)c12  CFTR ΔF508 (Homo sapiens, UniProt P13569, DEL508-508)      2.14
 8  COCC1CCN(c2cc(C(=O)NS(C)(=O)=O)nc3c2c(C2CCC2)nn3-c2ccc(F)cc2)CC1  CFTR ΔF508 (Homo sapiens, UniProt P13569, DEL508-508)      1.65
 9  COC1CCN(C2CCN(c3cc(C(=O)NS(N)(=O)=O)nc4c3c(C3CCC3)nn4-c3ccc(F)cc3)CC2)CC1  CFTR ΔF508 (Homo sapiens, UniProt P13569, DEL508-508)      1.67
10  O=C(NS(=O)(=O)C1CCOC1)c1cc(N2CCC(N3CCOCC3)CC2)c2c(C3CCC3)nn(-c3ccc(F)cc3)c2n1 (centres unmarked)  CFTR ΔF508 (Homo sapiens, UniProt P13569, DEL508-508)      1.92
11  CC(C)N1CCN(c2cc(C(=O)NS(C)(=O)=O)nc3c2c(C2CCC2)nn3-c2ccccc2)CC1  CFTR ΔF508 (Homo sapiens, UniProt P13569, DEL508-508)      2.47
